Entry source: paper PMC2248166

- Subject of test: HLA B*0801 (Homo sapiens, UniProt P01889, A93T/A95T/D138N/E176V/E187T/K202T/Q94N/R180D/S35A/V36M/Y33D/Y91F)
- Assay: biochemical
Where a SMILES comes first, the peptide text is derived from it.
Range-based classes on measured IC50: small value = under 2 nM, mid value = from 2 nM up to 30 nM, large value = 30 nM and over

Completed entries (count: 2):
- Compound: "CC(C)C[C@H](NC(=O)[C@@H](NC(=O)[C@H](CCCNC(=N)N)NC(=O)[C@H](Cc1ccccc1)NC(=O)[C@H](CCCCN)NC(=O)[C@H](CO)NC(=O)[C@H](CC(C)C)NC(=O)[C@H](CCC(N)=O)NC(=O)[C@@H](N)CC(=O)O)[C@@H](C)O)C(=O)O [3102.0710] (H-DQLSKFRTL-OH)"
  Class: "mid value"
- Compound: "CC[C@H](C)[C@H](NC(=O)[C@H](Cc1ccc(O)cc1)NC(=O)[C@H](C)NC(=O)[C@@H]1CCCN1C(=O)[C@@H](N)CCSC)C(=O)N[C@@H](CCCNC(=N)N)C(=O)N[C@@H](CC(N)=O)C(=O)N[C@H](C(=O)N[C@@H](CC(C)C)C(=O)O)[C@@H](C)O [3102.0553]"
  Class: "small value"

Which class does CC[C@H](C)[C@H](NC(=O)[C@H](CCCNC(=N)N)NC(=O)[C@@H](NC(=O)[C@H](CCCCN)NC(=O)[C@H](CC(C)C)NC(=O)[C@@H](N)CCCNC(=N)N)[C@@H](C)O)C(=O)N[C@@H](CCCNC(=N)N)C(=O)N[C@@H](CC(N)=O)C(=O)N[C@@H](CC(C)C)C(=O)O [3102.0740] (H-RLKTRIRNL-OH) fall in?
small value

----------
- Subject of test: HLA A*3201 (Homo sapiens, UniProt P04439, A270S/D101S/D185E/E176V/E277Q/F133L/G103R/G107R/G231S/H175R/I121M/I218V/I322F/K168Q/L105A/L300P/L318F/M331R/P208A/P217A/Q94H/R106L/R138Q/S129P/T104I/T323A/T345S/V100E/V321M/V358M)
- Assay: biochemical
- Assay type: binding
Where a SMILES comes first, the peptide text is derived from it.
Catalogue of pIC50 values
Bear in mind: pIC50 is minus log10 of a mol/L concentration; give just that figure.

- Molecule: "CC[C@H](C)[C@H](NC(=O)CNC(=O)[C@H](CC(N)=O)NC(=O)[C@H](CO)NC(=O)[C@@H](NC(=O)CNC(=O)[C@H](CC(N)=O)NC(=O)[C@@H](NC(=O)CN)[C@@H](C)O)[C@@H](C)CC)C(=O)O [3102.0439] (H-GTNGISNGI-OH)"
  pIC50: 7.70

Given the molecule CC[C@H](C)[C@H](NC(=O)[C@@H](NC(=O)[C@H](CC(N)=O)NC(=O)[C@H](CO)NC(=O)[C@H](CC(N)=O)NC(=O)[C@H](C)NC(=O)[C@@H](NC(=O)[C@@H](NC(=O)[C@@H](N)CO)[C@@H](C)O)[C@@H](C)CC)[C@@H](C)CC)C(=O)O [3102.0451] (H-STIANSNII-OH) , what is its reported pIC50?
7.85

Please answer likewise for CC[C@H](C)[C@H](N)C(=O)N[C@H](C(=O)N[C@@H](CO)C(=O)N[C@H](C(=O)N[C@H](C(=O)N[C@@H](CO)C(=O)N[C@@H](CC(C)C)C(=O)N[C@H](C(=O)N[C@H](C(=O)O)[C@@H](C)CC)C(C)C)[C@@H](C)CC)C(C)C)[C@@H](C)CC [3102.0334] (H-IISVISLVI-OH)
7.33

Please answer likewise for CC(C)C[C@H](NC(=O)[C@H](CO)NC(=O)[C@H](CC(C)C)NC(=O)[C@@H](NC(=O)[C@H](CC(C)C)NC(=O)[C@H](Cc1c[nH]cn1)NC(=O)[C@H](CC(N)=O)NC(=O)[C@H](CC(C)C)NC(=O)[C@H](C)N)C(C)C)C(=O)O [3102.0469] (H-ALNHLVLSL-OH)
7.39

Please answer likewise for CC[C@H](C)[C@H](NC(=O)[C@@H](N)CCC(N)=O)C(=O)N[C@H](C(=O)N[C@@H](C)C(=O)N[C@@H](Cc1ccc(O)cc1)C(=O)N[C@@H](Cc1ccccc1)C(=O)N[C@@H](CO)C(=O)N[C@@H](CCC(=O)O)C(=O)N[C@@H](Cc1ccccc1)C(=O)O)C(C)C [3102.0816] (H-QIVAYFSEF-OH)
7.15

Please answer likewise for CC[C@H](C)[C@H](NC(=O)[C@H](CC(N)=O)NC(=O)[C@H](Cc1ccccc1)NC(=O)[C@H](CCSC)NC(=O)[C@@H](N)CC(N)=O)C(=O)N[C@@H](CO)C(=O)N[C@@H](Cc1ccccc1)C(=O)N[C@@H](CCCNC(=N)N)C(=O)N[C@@H](Cc1ccccc1)C(=O)O [3102.0348] (H-NMFNISFRF-OH)
8.44

Please answer likewise for CC[C@H](C)[C@H](N)C(=O)N[C@@H](CC(C)C)C(=O)N[C@@H](Cc1ccc(O)cc1)C(=O)N[C@@H](Cc1ccc(O)cc1)C(=O)N[C@@H](CC(C)C)C(=O)N[C@@H](CO)C(=O)N[C@@H](C)C(=O)N[C@@H](CCCCN)C(=O)N[C@H](C(=O)O)[C@@H](C)CC [3102.0300] (H-ILYYLSAKI-OH)
8.05

Please answer likewise for CC[C@H](C)[C@H](NC(=O)[C@@H](NC(=O)[C@@H](NC(=O)[C@H](CC(C)C)NC(=O)[C@H](CC(C)C)NC(=O)[C@H](CC(N)=O)NC(=O)[C@H](Cc1ccc(O)cc1)NC(=O)[C@H](CCSC)NC(=O)[C@@H](N)CC(C)C)[C@@H](C)O)[C@@H](C)CC)C(=O)O [3102.0455] (H-LMYNLLTII-OH)
7.52

Please answer likewise for CC[C@H](C)[C@H](NC(=O)[C@@H](N)CC(N)=O)C(=O)N[C@@H](Cc1ccccc1)C(=O)N1CCC[C@H]1C(=O)N[C@@H](Cc1ccccc1)C(=O)N[C@@H](Cc1ccccc1)C(=O)N[C@H](C(=O)N[C@@H](C)C(=O)N[C@@H](Cc1ccccc1)C(=O)O)C(C)C [3102.1019] (H-NIFPFFVAF-OH)
7.92

Please answer likewise for CC[C@H](C)[C@H](N)C(=O)N[C@@H](C)C(=O)N[C@@H](CO)C(=O)N[C@H](C(=O)N[C@@H](CC(C)C)C(=O)N[C@H](C(=O)N[C@H](C(=O)N[C@H](C(=O)N[C@H](C(=O)O)[C@@H](C)CC)[C@@H](C)O)C(C)C)[C@@H](C)CC)[C@@H](C)O [3102.0358] (H-IASTLIVTI-OH)
7.13

Please answer likewise for CC(C)[C@H](NC(=O)CNC(=O)[C@H](Cc1ccc(O)cc1)NC(=O)[C@@H](NC(=O)[C@@H](N)CCCNC(=N)N)[C@@H](C)O)C(=O)N[C@@H](CC(N)=O)C(=O)N[C@@H](Cc1ccc(O)cc1)C(=O)N[C@H](C(=O)N[C@@H](Cc1ccccc1)C(=O)O)[C@@H](C)O [3102.0318] (H-RTYGVNYTF-OH)
9.59

----------
- Subject of test: HLA B*2705 (Homo sapiens, UniProt P01889, D138H/D201E/E176V/E204Q/G107R/H137Y/K202T/N104T/N87E/Q56L/Q94K/R106L/R155S/R180L/S101D/S121N/S48T/Y140D/Y33H/Y91C)
- Assay type: binding
- Assay context: positional scanning combinatorial 9-mer library; normalized to 1.0 for the best residue at each position
Short version: Normalized average relative binding affinity (ARB), HLA B*2705 at least 0.03 is label 1, less is label 0.

- Sequence entry: "XNXXXXXXX [3064.0032]"
  Class: "label 0"

Could you tell me if the measured Normalized average relative binding affinity (ARB), HLA B*2705 of XIXXXXXXX [3064.0028] reaches 0.03 or more?
label 0

Please answer likewise for XXSXXXXXX [3064.0056]
label 1

Please answer likewise for XXPXXXXXX [3064.0053]
label 0

Please answer likewise for XXYXXXXXX [3064.0060]
label 1

Please answer likewise for CXXXXXXXX [3064.0002]
label 1

Please answer likewise for DXXXXXXXX [3064.0003]
label 0

Please answer likewise for XWXXXXXXX [3064.0039]
label 0

----------
- Subject of test: HLA B*1501 (Homo sapiens, UniProt P01889, A329T/A93T/A95T/C349S/D201E/D98Y/E187L/E204Q/E69M/E70A/K202T/N87E/Q94N/R155S/R180W/S121R/S35A/S48A/V306I/V36M/Y140S/Y91S)
- Assay: biochemical
- Format: binding
Value type: Normalized average relative binding affinity (ARB), HLA B*1501

Example results:
- Sequence entry: "EXXXXXXXX [3064.0004]"
  Reported measurement: 0.16
- Sequence entry: "XFXXXXXXX [3064.0025]"
  Reported measurement: 0.099
- Sequence entry: "XCXXXXXXX [3064.0022]"
  Reported measurement: 0.027
- Sequence entry: "XEXXXXXXX [3064.0024]"
  Reported measurement: 0.20
- Sequence entry: "XXNXXXXXX [3064.0052]"
  Reported measurement: 0.46

Given the sequence DXXXXXXXX [3064.0003] , what is its reported Normalized average relative binding affinity (ARB), HLA B*1501?
0.042

Please answer likewise for XYXXXXXXX [3064.0040]
0.028

Please answer likewise for WXXXXXXXX [3064.0019]
0.44

Please answer likewise for XNXXXXXXX [3064.0032]
0.052

Please answer likewise for GXXXXXXXX [3064.0006]
0.43

Please answer likewise for XXHXXXXXX [3064.0047]
0.68

Please answer likewise for XXRXXXXXX [3064.0055]
0.69

Please answer likewise for XWXXXXXXX [3064.0039]
0.027

Please answer likewise for XXXCXXXXX [3064.0062]
0.39

Please answer likewise for MXXXXXXXX [3064.0011]
0.89
